// data source = ChEMBL document CHEMBL3885881

# Species on record: Rattus norvegicus
# assay.comment: DrugMatrix - Regimen: Daily Repeat
# Assay type: toxicity, organism-based, Sprague-Dawley
# Design: regimen Daily Repeat, gender Male, age 6-8 weeks
# study.conditions: in vivo, po, 50 mg/kg, 120 h, tissue Plasma, route oral GAVAGE, dose level Low, time 5 day, vehicle .5 % CMC
# PHOSPHORUS listing for each entry below

| compound | PHOSPHORUS / mg/dL |
| --- | --- |
| CCN1CCC[C@H]1CNC(=O)c1cc(S(N)(=O)=O)ccc1OC [LEVOSULPIRIDE] | 10.97 |
| Cc1cccc(C)c1OCC(C)N (centres undefined) | 12.77 |
| NC1CCN(c2nc3c(cc2F)c(=O)c(C(=O)O)cn3-c2ccc(F)cc2F)C1 (centres undefined) | 10.13 |
| CN(C)[C@@H]1C(O)=C(C(N)=O)C(=O)[C@@]2(O)C(O)=C3C(=O)c4c(O)ccc(Cl)c4[C@@](C)(O)[C@H]3C[C@@H]12 | 12.97 |

----------
# Species on record: Rattus norvegicus
# assay.comment: DrugMatrix - Regimen: Daily Repeat
# Assay type: toxicity, organism-based, Sprague-Dawley
# Parameters: regimen Daily Repeat, gender Male, age 6-8 weeks
# study.conditions: in vivo, po, 10 mg/kg, 72 h, tissue Blood, route oral GAVAGE, dose level Low, time 3 day, vehicle .5 % CMC

| compound | HEMATOCRIT |
| --- | --- |
| CNCCC(Oc1ccc(C(F)(F)F)cc1)c1ccccc1 (centres undefined) | 38.43% |
| O=C1CN=C(c2ccccc2Cl)c2cc([N+](=O)[O-])ccc2N1 | 35.23% |
| Fc1ccc(C(c2ccc(F)cc2)N2CCN(C/C=C/c3ccccc3)CC2)cc1 | 37.17% |
| O=C1C(CC[S+]([O-])c2ccccc2)C(=O)N(c2ccccc2)N1c1ccccc1 (centres undefined) | 34.03% |

----------
# Organism: Rattus norvegicus
# assay.comment: DrugMatrix - Regimen: Daily Repeat
# Type: toxicity, organism-based, Sprague-Dawley
# Set-up: regimen Daily Repeat, gender Male, age 6-8 weeks
# study.conditions: in vivo, po, 0 mg/kg, 72 h, tissue Blood, route oral GAVAGE, dose level Control, time 3 day, vehicle 100 % WATER
# EOSINOPHIL listing for each entry below
property.name: EOSINOPHIL

| compound | property.name | test.result |
| --- | --- | --- |
| Cc1ccc(NC(=O)c2ccc(CN3CCN(C)CC3)cc2)cc1Nc1nccc(-c2cccnc2)n1 | EOSINOPHIL | 0.83% |
| C[C@]12C=CC(=O)C=C1CC[C@@H]1[C@@H]2[C@@H](O)C[C@@]2(C)[C@H]1CC[C@]2(O)C(=O)CO | EOSINOPHIL | 0.17% |
| CCN(CC)CCNC(=O)c1cc(S(C)(=O)=O)ccc1OC [TIAPRIDE] | EOSINOPHIL | 0.83% |
| CC(C)(C)CC(C)(C)c1ccc(OCCOCC[N+](C)(C)Cc2ccccc2)cc1.[Cl-] [BENZETHONIUM CHLORIDE] | EOSINOPHIL | 0.17% |
| Oc1cccc(O)c1O | EOSINOPHIL | 0.5% |

----------
# HEMATOCRIT listing for each entry below
# Organism: Rattus norvegicus
# assay.comment: DrugMatrix - Regimen: Daily Repeat
# Type: toxicity, organism-based, Sprague-Dawley
# Parameters: regimen Daily Repeat, gender Male, age 6-8 weeks
# study.conditions: in vivo, po, 50 mg/kg, 72 h, tissue Blood, route oral GAVAGE, dose level Low, time 3 day, vehicle .5 % CMC

| compound | HEMATOCRIT (%) |
| --- | --- |
| CN(C)[C@@H]1C(O)=C(C(N)=O)C(=O)[C@@]2(O)C(O)=C3C(=O)c4c(O)ccc(Cl)c4[C@@](C)(O)[C@H]3C[C@@H]12 [CHLORTETRACYCLINE] | 34.47 |
| NC1CCN(c2nc3c(cc2F)c(=O)c(C(=O)O)cn3-c2ccc(F)cc2F)C1 (centres undefined) [TOSUFLOXACIN] | 39.2 |
| CCN1CCC[C@H]1CNC(=O)c1cc(S(N)(=O)=O)ccc1OC [LEVOSULPIRIDE] | 33.77 |
| Cc1cccc(C)c1OCC(C)N (centres undefined) [MEXILETINE] | 36.67 |

----------
# Species on record: Rattus norvegicus
# assay.comment: DrugMatrix - Regimen: Daily Repeat
# Type: toxicity, organism-based, Sprague-Dawley
# Set-up: regimen Daily Repeat, gender Male, age 6-8 weeks
# study.conditions: in vivo, po, 2000 mg/kg, 120 h, tissue Plasma, route oral GAVAGE, dose level High, time 5 day, vehicle .5 % CMC

| molecule | BLOOD UREA NITROGEN, mg/dL |
| --- | --- |
| NC1CCN(c2nc3c(cc2F)c(=O)c(C(=O)O)cn3-c2ccc(F)cc2F)C1 (stereo unspecified) | 9.67 |
| CN/C(=N/CCSCc1nc[nH]c1C)NC#N | 19.33 |
| O=C1Nc2ccc(Cl)cc2C(c2ccccc2Cl)=NC1O (stereo unspecified) | 21.5 |
| CN(C/C=C/C#CC(C)(C)C)Cc1cccc2ccccc12 | 12 |
| COc1cc2nc(N3CCN(C(=O)c4ccco4)CC3)nc(N)c2cc1OC | 16 |
| CC1(C)S[C@@H]2[C@H](NC(=O)[C@H](N)c3ccccc3)C(=O)N2[C@H]1C(=O)O | 19.33 |

----------
# ALANINE AMINOTRANSFERASE listing for each entry below
# Species on record: Rattus norvegicus
# assay.comment: DrugMatrix - Regimen: Daily Repeat
# Type: toxicity, organism-based, Sprague-Dawley
# Set-up: regimen Daily Repeat, gender Male, age 6-8 weeks
# study.conditions: in vivo, po, 50 mg/kg, 72 h, tissue Plasma, route oral GAVAGE, dose level Low, time 3 day, vehicle .5 % CMC

| compound | ALANINE AMINOTRANSFERASE, u/L |
| --- | --- |
| NC1CCN(c2nc3c(cc2F)c(=O)c(C(=O)O)cn3-c2ccc(F)cc2F)C1 (centres undefined) | 36.67 |
| Cc1cccc(C)c1OCC(C)N (centres undefined) | 39.67 |
| CN(C)[C@@H]1C(O)=C(C(N)=O)C(=O)[C@@]2(O)C(O)=C3C(=O)c4c(O)ccc(Cl)c4[C@@](C)(O)[C@H]3C[C@@H]12 | 50.33 |
| CCN1CCC[C@H]1CNC(=O)c1cc(S(N)(=O)=O)ccc1OC [LEVOSULPIRIDE] | 41 |

----------
# Organism: Rattus norvegicus
# assay.comment: DrugMatrix - Regimen: Daily Repeat
# Format: toxicity, organism-based, Sprague-Dawley
# Design: regimen Daily Repeat, gender Male, age 6-8 weeks
# study.conditions: in vivo, po, 10 mg/kg, 72 h, tissue Plasma, route oral GAVAGE, dose level Low, time 3 day, vehicle .5 % CMC
# ALKALINE PHOSPHATASE listing for each entry below

| compound | ALKALINE PHOSPHATASE (u/L) |
| --- | --- |
| CNCCC(Oc1ccc(C(F)(F)F)cc1)c1ccccc1 (centres undefined) [FLUOXETINE] | 373.67 |
| O=C1C(CC[S+]([O-])c2ccccc2)C(=O)N(c2ccccc2)N1c1ccccc1 (centres undefined) [SULFINPYRAZONE] | 353.33 |
| O=C1CN=C(c2ccccc2Cl)c2cc([N+](=O)[O-])ccc2N1 [CLONAZEPAM] | 310 |
| Fc1ccc(C(c2ccc(F)cc2)N2CCN(C/C=C/c3ccccc3)CC2)cc1 [FLUNARIZINE] | 347.33 |

----------
# Species: Rattus norvegicus
# assay.comment: DrugMatrix - Regimen: Daily Repeat
# Format: toxicity, organism-based, Sprague-Dawley
# Parameters: regimen Daily Repeat, gender Male, age 6-8 weeks
# study.conditions: in vivo, po, 50 mg/kg, 120 h, tissue Blood, route oral GAVAGE, dose level Low, time 5 day, vehicle .5 % CMC
# LEUKOCYTE COUNT listing for each entry below

| molecule | LEUKOCYTE COUNT |
| --- | --- |
| CN(C)[C@@H]1C(O)=C(C(N)=O)C(=O)[C@@]2(O)C(O)=C3C(=O)c4c(O)ccc(Cl)c4[C@@](C)(O)[C@H]3C[C@@H]12 [CHLORTETRACYCLINE] | 13.5 x10E3/uL |
| NC1CCN(c2nc3c(cc2F)c(=O)c(C(=O)O)cn3-c2ccc(F)cc2F)C1 (centres undefined) [TOSUFLOXACIN] | 19.4 x10E3/uL |
| CCN1CCC[C@H]1CNC(=O)c1cc(S(N)(=O)=O)ccc1OC [LEVOSULPIRIDE] | 13.63 x10E3/uL |
| Cc1cccc(C)c1OCC(C)N (centres undefined) [MEXILETINE] | 19.63 x10E3/uL |

----------
# Species: Rattus norvegicus
# assay.comment: DrugMatrix - Regimen: Daily Repeat
# Assay type: toxicity, organism-based, Sprague-Dawley
# Set-up: regimen Daily Repeat, gender Male, age 6-8 weeks
# study.conditions: in vivo, po, 50 mg/kg, 72 h, tissue Plasma, route oral GAVAGE, dose level Low, time 3 day, vehicle .5 % CMC

| compound | ASPARTATE AMINOTRANSFERASE / u/L |
| --- | --- |
| NC1CCN(c2nc3c(cc2F)c(=O)c(C(=O)O)cn3-c2ccc(F)cc2F)C1 (centres undefined) | 66.33 |
| Cc1cccc(C)c1OCC(C)N (centres undefined) | 70.33 |
| CCN1CCC[C@H]1CNC(=O)c1cc(S(N)(=O)=O)ccc1OC [LEVOSULPIRIDE] | 64 |
| CN(C)[C@@H]1C(O)=C(C(N)=O)C(=O)[C@@]2(O)C(O)=C3C(=O)c4c(O)ccc(Cl)c4[C@@](C)(O)[C@H]3C[C@@H]12 | 84.67 |
